Measured target: EGFR (Homo sapiens (Human), UniProt P00533)
Sequence (P00533 25-1210): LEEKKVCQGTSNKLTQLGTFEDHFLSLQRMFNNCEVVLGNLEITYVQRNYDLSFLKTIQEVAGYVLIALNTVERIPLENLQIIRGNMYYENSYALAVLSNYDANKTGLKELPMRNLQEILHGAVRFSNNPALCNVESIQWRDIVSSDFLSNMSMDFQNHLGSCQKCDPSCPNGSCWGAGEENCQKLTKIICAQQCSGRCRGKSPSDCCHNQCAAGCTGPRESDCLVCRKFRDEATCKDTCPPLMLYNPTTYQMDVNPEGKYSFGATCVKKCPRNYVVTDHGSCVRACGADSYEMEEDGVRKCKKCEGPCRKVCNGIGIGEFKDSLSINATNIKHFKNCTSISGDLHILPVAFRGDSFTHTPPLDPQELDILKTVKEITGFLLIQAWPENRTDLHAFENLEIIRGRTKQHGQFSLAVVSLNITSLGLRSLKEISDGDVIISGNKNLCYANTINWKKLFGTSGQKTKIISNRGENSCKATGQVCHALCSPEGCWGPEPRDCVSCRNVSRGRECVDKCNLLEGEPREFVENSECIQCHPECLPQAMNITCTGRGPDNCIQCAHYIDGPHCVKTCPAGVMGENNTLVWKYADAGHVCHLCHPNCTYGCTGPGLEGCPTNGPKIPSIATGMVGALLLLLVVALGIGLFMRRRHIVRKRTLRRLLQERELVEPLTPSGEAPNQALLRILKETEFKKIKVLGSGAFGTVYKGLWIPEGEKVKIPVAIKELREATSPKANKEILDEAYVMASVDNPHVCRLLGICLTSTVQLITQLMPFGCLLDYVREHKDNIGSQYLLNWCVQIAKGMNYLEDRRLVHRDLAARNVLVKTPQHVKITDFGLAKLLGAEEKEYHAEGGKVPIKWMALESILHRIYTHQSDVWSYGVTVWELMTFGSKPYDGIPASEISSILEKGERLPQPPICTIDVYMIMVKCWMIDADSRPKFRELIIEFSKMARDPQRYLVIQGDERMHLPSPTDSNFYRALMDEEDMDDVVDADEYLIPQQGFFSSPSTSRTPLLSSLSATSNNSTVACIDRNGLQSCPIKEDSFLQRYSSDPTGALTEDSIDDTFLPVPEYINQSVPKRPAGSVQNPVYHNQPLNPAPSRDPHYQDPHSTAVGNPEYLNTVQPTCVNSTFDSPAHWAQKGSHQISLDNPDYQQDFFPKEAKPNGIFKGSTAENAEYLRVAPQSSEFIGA
Assay summary: ErbB Enzyme Assay (HTRF KinEASE-TK), Assay 3
Format: biochemical
Particulars: EGFR enzyme assay
pIC50: −log10 of the molar value.
pIC50 listing for selected compounds.
Measure: pIC50

| Compound | Measure | Sign qualifier | Numeric result |
| --- | --- | --- | --- |
| C=CC(=O)N1CC[C@H](c2ccc3ncnc(Nc4ccc(Oc5cnc6c(c5)ncn6C)c(Cl)c4)c3n2)CC1(C)C (racemic) | pIC50 | ≤ | 5.00 |
| CC#CC(=O)N1CC[C@@H]2C[C@H]1CN2c1ccc2ncnc(Nc3cc(Cl)c(Oc4ccn5ncnc5c4)cc3F)c2n1 | pIC50 | ≤ | 5.00 |
| C=CC(=O)N1C[C@H]2CC[C@@H]1[C@H](c1ccc3ncnc(Nc4ccc(Oc5ccn6ncnc6c5)c(C)c4F)c3n1)C2 | pIC50 | = | 5.95 |
| C=CC(=O)N1CCCC(c2ccc3ncnc(Nc4ccc(Oc5cnc6c(c5)ncn6C)c(C)c4F)c3n2)CC1 (stereo not shown) | pIC50 | = | 5.65 |
| C=CC(=O)N1CCN(c2ccc3ncnc(Nc4ccc(Oc5ccc6scnc6c5)c(C)c4)c3n2)CC1(C)C | pIC50 | = | 6.68 |
| C=CC(=O)N1CCN(c2ccc3ncnc(Nc4cc(Cl)c(Oc5cnc6c(c5)ncn6C)cc4F)c3n2)C[C@H]1C1CC1 | pIC50 | ≤ | 5.00 |
| C=CC(=O)N1[C@H](C)CN(c2ccc3ncnc(Nc4ccc(Oc5ccc6c(c5)ncn6C)c(C)c4F)c3n2)C[C@H]1C | pIC50 | ≤ | 5.00 |
| C=CC(=O)N1CCN(c2ccc3ncnc(Nc4cc(Cl)c(Oc5cnc6c(c5)ncn6C)cc4F)c3n2)CC1(C)C | pIC50 | = | 5.98 |
| C=CC(=O)N1CCN(c2ccc3ncnc(Nc4cc(Cl)c(Oc5cnc6c(c5)ncn6C)cc4F)c3n2)C[C@@H]1C1CC1 | pIC50 | ≤ | 5.00 |
| C=CC(=O)N1[C@@H](C)CC(c2ccc3ncnc(Nc4ccc(Oc5ccc6c(c5)ncn6C)c(C)c4F)c3n2)C[C@@H]1C (mixture of isomers) | pIC50 | ≤ | 5.00 |

----------
IC50 listing for selected molecules.
Measured target: ErbB2 WT (Homo sapiens (Human))
Sequence (P04626 23-1255): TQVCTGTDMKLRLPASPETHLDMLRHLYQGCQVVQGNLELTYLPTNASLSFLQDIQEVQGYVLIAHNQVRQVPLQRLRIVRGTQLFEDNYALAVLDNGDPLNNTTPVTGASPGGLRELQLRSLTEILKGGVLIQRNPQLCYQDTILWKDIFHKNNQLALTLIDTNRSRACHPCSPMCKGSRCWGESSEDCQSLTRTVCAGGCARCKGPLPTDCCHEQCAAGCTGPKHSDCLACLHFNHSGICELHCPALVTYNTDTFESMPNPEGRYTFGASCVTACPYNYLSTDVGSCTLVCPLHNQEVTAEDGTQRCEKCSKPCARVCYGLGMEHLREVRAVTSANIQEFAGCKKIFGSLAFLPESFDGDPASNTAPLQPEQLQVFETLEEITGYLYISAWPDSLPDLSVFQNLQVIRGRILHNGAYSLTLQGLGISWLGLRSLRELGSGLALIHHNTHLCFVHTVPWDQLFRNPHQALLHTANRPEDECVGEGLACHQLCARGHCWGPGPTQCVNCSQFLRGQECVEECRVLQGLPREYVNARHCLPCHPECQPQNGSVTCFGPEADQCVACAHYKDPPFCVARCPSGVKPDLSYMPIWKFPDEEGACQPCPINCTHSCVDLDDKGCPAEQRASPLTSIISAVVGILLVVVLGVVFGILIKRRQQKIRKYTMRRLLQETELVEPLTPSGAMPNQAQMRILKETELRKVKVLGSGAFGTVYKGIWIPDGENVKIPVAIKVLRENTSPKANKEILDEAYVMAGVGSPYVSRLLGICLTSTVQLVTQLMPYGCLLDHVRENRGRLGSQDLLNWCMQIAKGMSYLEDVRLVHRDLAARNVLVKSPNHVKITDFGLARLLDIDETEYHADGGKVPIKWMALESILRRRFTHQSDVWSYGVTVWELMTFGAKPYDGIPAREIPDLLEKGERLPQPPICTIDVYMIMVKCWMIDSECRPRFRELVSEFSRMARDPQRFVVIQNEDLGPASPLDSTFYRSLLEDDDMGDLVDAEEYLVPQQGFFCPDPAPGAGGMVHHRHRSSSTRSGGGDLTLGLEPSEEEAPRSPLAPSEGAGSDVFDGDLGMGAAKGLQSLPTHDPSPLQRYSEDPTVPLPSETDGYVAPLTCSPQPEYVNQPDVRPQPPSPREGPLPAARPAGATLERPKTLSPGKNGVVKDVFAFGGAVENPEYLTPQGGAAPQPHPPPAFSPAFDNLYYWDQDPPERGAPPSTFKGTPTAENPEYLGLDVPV
Assay summary: ErbB Enzyme Assay (HTRF KinEASE-TK), Assay 2
Assay type: biochemical
Particulars: ErbB2 WT enzyme

| Molecule | U | IC50 |
| --- | --- | --- |
| C=CC(=O)N1CCC(c2ccc3ncnc(Nc4ccc(Oc5ccc6c(c5)ncn6C)c(C)c4F)c3n2)CC12CC2 (stereo not drawn) | nM | 44.4 |
| C=CC(=O)N1CC[C@@H]2[C@H](c3ccc4ncnc(Nc5ccc(Oc6ccc7c(c6)ncn7C)c(C)c5F)c4n3)CC[C@@H]21 (racemic) | nM | 49.9 |
| C=CC(=O)N1CCN(c2ccc3ncnc(Nc4ccc(Oc5ccc6c(c5)ncn6C)c(Cl)c4)c3n2)CC1 | nM | 8.7 |
| C=CC(=O)N1C[C@H]2CC[C@@H](C1)[C@@H]2c1ccc2ncnc(Nc3ccc(Oc4ccn5ncnc5c4)c(C)c3F)c2n1 | nM | 48.9 |
| C=CC(=O)N1CCCC[C@H](c2ccc3ncnc(Nc4ccc(Oc5ccc6c(c5)ncn6C)c(C)c4)c3n2)C1 (single isomer, unassigned) | nM | 5.2 |
| C=CC(=O)N1C[C@H]2C[C@@H]1CN(c1ccc3ncnc(Nc4cc(Cl)c(Oc5ccc6c(c5)ncn6C)cc4F)c3n1)C2 | nM | 237 |

----------
Measured target: BCRP (Homo sapiens (Human))
Sequence (Q9UNQ0 whole entry): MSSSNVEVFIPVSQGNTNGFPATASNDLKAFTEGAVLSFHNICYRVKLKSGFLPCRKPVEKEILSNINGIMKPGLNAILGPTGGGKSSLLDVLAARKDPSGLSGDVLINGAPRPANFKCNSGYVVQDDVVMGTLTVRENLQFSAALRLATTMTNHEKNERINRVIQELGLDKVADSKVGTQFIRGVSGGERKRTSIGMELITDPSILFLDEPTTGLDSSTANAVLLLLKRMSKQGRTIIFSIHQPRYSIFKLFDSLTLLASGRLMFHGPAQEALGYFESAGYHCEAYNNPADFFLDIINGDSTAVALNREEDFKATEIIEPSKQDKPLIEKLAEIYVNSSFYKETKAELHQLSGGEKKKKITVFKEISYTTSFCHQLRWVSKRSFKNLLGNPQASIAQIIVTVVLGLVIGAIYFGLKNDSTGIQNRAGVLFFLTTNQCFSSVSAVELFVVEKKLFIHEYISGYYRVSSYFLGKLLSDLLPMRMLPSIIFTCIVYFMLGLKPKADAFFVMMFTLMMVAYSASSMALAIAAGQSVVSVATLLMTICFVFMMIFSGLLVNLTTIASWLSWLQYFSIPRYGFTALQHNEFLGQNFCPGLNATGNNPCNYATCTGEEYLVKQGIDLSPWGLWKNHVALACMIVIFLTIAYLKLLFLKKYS
Assay summary: BCRP MDCKII efflux assay (Assay 7)
Type: in vitro ADME
Particulars: dog; efflux ratio Papp(B-A)/Papp(A-B), BCRP MDCKII cells; read-out: Assay 7 Pe Ratio
Measure: efflux ratio at 2 h, 1 µM

| Compound | Measured target | Result |
| --- | --- | --- |
| C=CC(=O)N1[C@H]2CC[C@@H]1[C@@H](c1ccc3ncnc(Nc4ccc(Oc5ccn6ncnc6c5)c(C)c4F)c3n1)C2 (single isomer, unassigned) [Example 229] | BCRP (Homo sapiens (Human)) | 3 |
| C=CC(=O)N1CCN(c2ccc3ncnc(Nc4cc(C)c(Oc5ccn6ncnc6c5)cc4F)c3n2)C[C@@H]1CC [Example 290] | BCRP (Homo sapiens (Human)) | 4.8 |
| C=CC(=O)N1CCN(c2ccc3ncnc(Nc4ccc(Oc5cnc6c(c5)ncn6C)c(C)c4F)c3n2)C[C@H]1C [Example 433] | BCRP (Homo sapiens (Human)) | 3.8 |
| C=CC(=O)N1CCN(c2ccc3ncnc(Nc4cc(C)c(Oc5ccn6ncnc6c5)cc4F)c3n2)CC1(C)C [Example 73] | BCRP (Homo sapiens (Human)) | 4.3 |
| C=CC(=O)N1C[C@H]2C[C@H](c3ccc4ncnc(Nc5cc(C)c(Oc6ccc7c(c6)ncn7C)cc5F)c4n3)C[C@H]2C1 [Example 136] | BCRP (Homo sapiens (Human)) | 1.7 |

----------
pIC50 listing for selected molecules.
Measured target: EGFR (Homo sapiens (Human), UniProt P00533)
Assay summary: ErbB Enzyme Assay (HTRF KinEASE-TK), Assay 3
Assay type: biochemical
Particulars: EGFR enzyme
pIC50: −log10 of the molar value.

| Molecule | Sign qualifier | pIC50 |
| --- | --- | --- |
| C=CC(=O)N1CCC[C@@H](c2ccc3ncnc(Nc4cc(C)c(Oc5ccc6c(c5)ncn6C)cc4F)c3n2)CC1 (racemic) | ≤ | 5.00 |
| C=C(F)C(=O)N1CCN(c2ccc3ncnc(Nc4ccc(Oc5ccn6ncnc6c5)c(C)c4F)c3n2)CC1 | ≤ | 5.00 |
| C=C(F)C(=O)N1CCN(c2ccc3ncnc(Nc4ccc(Oc5ccn6ncnc6c5)c(C)c4F)c3n2)CC1(C)C | ≤ | 5.00 |
| C=CC(=O)N1C2CC1CN(c1ccc3ncnc(Nc4cc(Cl)c(Oc5ccn6ncnc6c5)cc4F)c3n1)C2 | ≤ | 5.00 |
| C=CC(=O)N1C[C@H]2C[C@@H]1CN2c1ccc2ncnc(Nc3cc(C)c(Oc4ccn5ncnc5c4)cc3F)c2n1 | ≤ | 5.00 |
| C=CC(=O)N1CCC(Oc2ccc3ncnc(Nc4ccc(Oc5ccn6ccnc6c5)c(C)c4)c3n2)CC1 | = | 5.77 |
| CC#CC(=O)Nc1ccc2ncnc(Nc3ccc(Oc4ccc5c(c4)ncn5C)c(C)c3)c2n1 | = | 6.69 |
| C=C(C)c1ccc2ncnc(Nc3ccc(Oc4ccc5c(c4)ncn5C)c(C)c3)c2n1 | ≤ | 5.00 |
| C=CC(=O)N1CCC(Sc2ccc3ncnc(Nc4ccc(Oc5ccn6ncnc6c5)c(Cl)c4F)c3n2)CC1 | = | 6.48 |
| C=CC(=O)N1C[C@H]2CC[C@@H](C1)[C@@H]2c1ccc2ncnc(Nc3ccc(Oc4ccn5ncnc5c4)c(C)c3)c2n1 | = | 5.57 |
| C=CC(=O)N1CCC(c2ccc3ncnc(Nc4ccc(Oc5ccc6c(c5)ncn6C)c(C)c4F)c3n2)CC12CC2 (centres unmarked) | ≤ | 5.00 |
| C=CC(=O)N1CCN(c2ccc3ncnc(Nc4ccc(Oc5ccc6c(c5)ncn6C)c(C)c4F)c3n2)CCC1(C)C | ≤ | 5.00 |
| C=CC(=O)N1CCC[C@@H](c2ccc3ncnc(Nc4ccc(Oc5ccc6c(c5)ncn6C)c(C)c4F)c3n2)C1 (racemic) | = | 6.19 |
| C=CC(=O)N1C2CC1CN(c1ccc3ncnc(Nc4ccc(Oc5ccn6ncnc6c5)c(Cl)c4F)c3n1)C2 | = | 6.25 |
| C=CC(=O)N1CCCC[C@H](c2ccc3ncnc(Nc4ccc(Oc5ccc6c(c5)ncn6C)c(C)c4)c3n2)C1 (single isomer, unassigned) | = | 6.14 |
| C=CC(=O)N1CCN(c2ccc3ncnc(Nc4cc(C)c(Oc5ccn6ncnc6c5)cc4F)c3n2)CC1 | ≤ | 5.00 |
| C=CC(=O)N1CCC(Oc2ccc3ncnc(Nc4ccc(Oc5cnn6c(C)cnc6c5)c(C)c4F)c3n2)CC1 | ≤ | 5.00 |

----------
Measured target: ErbB2 WT (Homo sapiens (Human))
Assay summary: ErbB Enzyme Assay (HTRF KinEASE-TK), Assay 2
Type: biochemical
Particulars: ErbB2 WT enzyme assay
pIC50: −log10 of the molar value.

| Compound | pIC50 |
| --- | --- |
| C=CC(=O)N1C[C@@H]2C[C@H]1CC[C@@H]2c1ccc2ncnc(Nc3ccc(Oc4ccc5c(c4)ncn5C)c(C)c3F)c2n1 [Example 379] | 7.53 |
| C=CC(=O)N1CCN(c2ccc3ncnc(Nc4ccc(Oc5cc(F)c6c(c5)ncn6C)c(C)c4)c3n2)C[C@@H]1C1CC1 (racemic) [Example 278] | 7.26 |
| C=CC(=O)N1[C@@H]2CC[C@H]1[C@H](c1ccc3ncnc(Nc4ccc(Oc5cnc6c(c5)ncn6C)c(C)c4)c3n1)C2 [Example 408] | 7.49 |
| C=CC(=O)N1CCN(c2ccc3ncnc(Nc4ccc(Oc5ccc6c(c5)ncn6C)c(Cl)c4F)c3n2)CC1(C)C [Example 262] | 7.72 |
| C=CC(=O)N1CCN(c2ccc3ncnc(Nc4ccc(Oc5ccn6ncnc6c5)c(Cl)c4F)c3n2)C[C@H]1C(C)(C)C [Example 311] | 7.10 |

Entry source: patent US12447153B2
